Entries and their total protein half-life in vivo values follow.
- methodSummary: total protein half-life in vivo (active degradation + dilution); higher = more stable protein
- conditionDetails: wild type E. coli NCM3722; growth: P-lim chemostat; doubling time 6 h
Write the number in h without appending the unit.

Reference set, count: 5
macromoleculeSequence	quantity	observed
MTDKLTSLRQYTTVVADTGDIAAMKLYQPQDATTNPSLILNAAQIPEYRKLIDDAVAWAKQQSNDRAQQIVDATDKLAVNIGLEILKLVPGRISTEVDARLSYDTEASIAKAKRLIKLYNDAGISNDRILIKLASTWQGIRAAEQLEKEGINCNLTLLFSFAQARACAEAGVFLISPFVGRILDWYKANTDKKEYAPAEDPGVVSVSEIYQYYKEHGYETVVMGASFRNIGEILELAGCDRLTIAPALLKELAESEGAIERKLSYTGEVKARPARITESEFLWQHNQDPMAVDKLAEGIRKFAIDQEKLEKMIGDLL [P0A870]	total protein half-life in vivo	6.18
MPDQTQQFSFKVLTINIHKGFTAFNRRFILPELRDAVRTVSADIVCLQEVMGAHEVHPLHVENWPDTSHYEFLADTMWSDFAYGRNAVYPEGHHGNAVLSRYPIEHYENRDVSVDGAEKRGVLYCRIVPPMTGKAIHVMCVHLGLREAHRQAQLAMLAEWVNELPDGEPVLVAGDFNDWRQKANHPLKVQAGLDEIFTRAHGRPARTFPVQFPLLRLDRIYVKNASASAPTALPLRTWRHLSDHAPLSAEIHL [P0AAW1]	total protein half-life in vivo	5.16
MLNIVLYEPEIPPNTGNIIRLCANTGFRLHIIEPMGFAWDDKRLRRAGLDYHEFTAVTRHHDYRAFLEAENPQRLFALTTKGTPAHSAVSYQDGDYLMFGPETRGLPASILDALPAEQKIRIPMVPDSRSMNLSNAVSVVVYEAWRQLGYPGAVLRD [P0AGJ7]	total protein half-life in vivo	5.93
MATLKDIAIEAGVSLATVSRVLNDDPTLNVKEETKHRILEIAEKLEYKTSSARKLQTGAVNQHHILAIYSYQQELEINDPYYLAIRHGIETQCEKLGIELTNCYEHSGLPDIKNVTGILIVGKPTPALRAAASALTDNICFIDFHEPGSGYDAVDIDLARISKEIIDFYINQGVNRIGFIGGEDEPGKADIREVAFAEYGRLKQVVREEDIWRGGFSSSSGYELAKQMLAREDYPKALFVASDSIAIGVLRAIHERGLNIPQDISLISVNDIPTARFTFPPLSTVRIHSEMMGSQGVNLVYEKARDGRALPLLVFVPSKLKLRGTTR	total protein half-life in vivo	6.01
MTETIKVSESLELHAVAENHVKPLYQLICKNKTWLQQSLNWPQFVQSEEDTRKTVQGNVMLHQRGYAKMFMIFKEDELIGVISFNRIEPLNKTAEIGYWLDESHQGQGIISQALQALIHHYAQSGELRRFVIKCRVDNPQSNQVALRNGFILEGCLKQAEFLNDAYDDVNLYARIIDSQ	total protein half-life in vivo	5.61

Let us examine a further case.
Input line: Param item = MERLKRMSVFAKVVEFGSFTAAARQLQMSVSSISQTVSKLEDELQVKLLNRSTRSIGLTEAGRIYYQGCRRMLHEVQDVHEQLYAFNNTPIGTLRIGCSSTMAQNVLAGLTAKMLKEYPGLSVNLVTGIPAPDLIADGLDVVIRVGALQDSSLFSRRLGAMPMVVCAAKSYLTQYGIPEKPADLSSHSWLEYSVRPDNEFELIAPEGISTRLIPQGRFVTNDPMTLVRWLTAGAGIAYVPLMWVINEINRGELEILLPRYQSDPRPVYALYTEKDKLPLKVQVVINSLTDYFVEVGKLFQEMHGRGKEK ; retrieve measured total protein half-life in vivo.
Output line: 5.75
